Test system: OVCAR-8 ovarian
Assay: NCI tumour cell line growth inhibition, 48 h
Reported TGI is given for each of the following molecules.
ENDPOINT: TGI

INSERT INTO assay_data (molecule, endpoint, measurement) VALUES
  ('Nc1nc2c(c(=O)[nH]1)CN(c1ccc(S(N)(=O)=O)cc1)CN2', 'TGI', '> 100 µM'),
  ('CC12CCC(=O)C=C1CCC1C2C(O)CC2(C)C(c3csc(N)n3)CCC12 (stereo unspecified)', 'TGI', '> 100 µM'),
  ('N/C(=N/n1c(=S)[nH]c2ccccc2c1=O)Nn1c(=S)[nH]c2ccccc2c1=O', 'TGI', '> 100 µM'),
  ('COc1cc[n+](C)cc1', 'TGI', '> 100 µM'),
  ('c1cc2c(c(-c3c4ccccc4nc4ccccc34)c1)CC1(CC2)OCCO1', 'TGI', '> 100 µM'),
  ('C[C@@H]1CN(CC(=O)N2CC(C)(C)c3nc(CO)c(Cc4ccc(F)cc4)cc32)[C@@H](CN2CCOC[C@H]2C)CN1', 'TGI', '> 100 µM');

====

Tested on: NCI/ADR-RES ovarian
Assay: NCI tumour cell line growth inhibition, 48 h
Reported TGI is given for each of the following molecules.
ENDPOINT: TGI

INSERT INTO results (molecule, system_under_test, measurement) VALUES
  ('CN(C)Cc1cc(N=Nc2ccccc2)cc(CN(C)C)c1O', 'NCI/ADR-RES ovarian', '> 100 µM'),
  ('CSc1ccc(/C=C2\N=C(c3ccccc3)N(c3nc4ccc(Sc5ccccc5)cc4[nH]3)C2=O)cc1', 'NCI/ADR-RES ovarian', '72.3 µM'),
  ('CC(=O)Nc1ccc2c(c1)oc(=O)c1cc(NC(C)=O)ccc12', 'NCI/ADR-RES ovarian', '> 100 µM'),
  ('O=NNc1nc(-c2cccnc2)nc2ccccc12', 'NCI/ADR-RES ovarian', '> 100 µM'),
  ('S=C1N=C(Cl)C2(NN1)c1ccccc1-c1ccccc12', 'NCI/ADR-RES ovarian', '> 10 µM'),
  ('OC1COC(n2c3ccc(Br)cc3c3ccc4c5ccccc5[nH]c4c32)C(O)C1O (stereo not given)', 'NCI/ADR-RES ovarian', '19.1 µM'),
  ('COc1cc(-c2cn(-c3ccc(Cl)cc3)c(C)c2C(=O)C(F)(F)F)cc(OC)c1OC', 'NCI/ADR-RES ovarian', '> 100 µM'),
  ('Cc1cccc(NC(=S)N=Nc2c(O)[nH]c3ccccc23)c1', 'NCI/ADR-RES ovarian', '85.9 µM'),
  ('O=[N+]([O-])c1ccc2nc(/C=C(\O)c3ccc(F)cc3)c(/C=C(\O)c3ccc(F)cc3)nc2c1', 'NCI/ADR-RES ovarian', '> 100 µM'),
  ('N/C(=N/n1c(=S)[nH]c2ccccc2c1=O)Nn1c(=S)[nH]c2ccccc2c1=O', 'NCI/ADR-RES ovarian', '> 100 µM'),
  ('COc1cc2c(cc1OC)CC(N=[N+]=[N-])c1cc(OC)c(OC)cc1/C=C\2 (stereo not given)', 'NCI/ADR-RES ovarian', '> 100 µM'),
  ('Cc1ccc(Nc2cc(=O)[nH]c(=S)[nH]2)cc1', 'NCI/ADR-RES ovarian', '> 100 µM'),
  ('NCc1ccc(C(=O)O)cc1', 'NCI/ADR-RES ovarian', '> 100 µM'),
  ('O=C1/C(=C/c2ccc(O)cc2)COc2ccc(-c3ccccc3)cc21', 'NCI/ADR-RES ovarian', '53.9 µM'),
  ('CCN(Cc1ccccc1OC)c1ccc(CO)c(Cl)c1', 'NCI/ADR-RES ovarian', '26.9 µM');
